Provenance of the data: the Human Domainome abundance scans (Beltran et al. 2025)

B1: E3 ubiquitin-protein ligase NEDD4-like, residues 539 to 589; numbered along this chain, Q96PU5 (parent)
chain: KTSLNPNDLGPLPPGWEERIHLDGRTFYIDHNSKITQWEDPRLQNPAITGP

- Variants of: B1
- method: abundance fitness (aPCA) (normalised: wild type 0, dead -1); higher = more abundant; growth selection in yeast, the domain comes from the species named
- setupConditions: Homo sapiens
readoutKind: abundance fitness
# respond with the number and nothing more

[
  {
    "mutationString": "G24C",
    "abundance fitness": -0.917
  }
]

Field: next variant
Input: For the variant shown here, "G10N" , give the reported abundance fitness.
Output: 0.139
